Field: Experiment's PV #2. Provide a value for each of the molecules that follow.
system: Multicellular spheroids with hASC and MDA-MB-231; test: Permeability value (PV) in the 3D tumor model; conditions: PV = EffA:M - 1/2(EffASC + EffMDA), Equation (4); #2

The molecule identified as COc1cccc2c1C(=O)c1c(O)c3c(c(O)c1C2=O)C[C@@](O)(C(=O)CO)C[C@@H]3O[C@H]1C[C@H](N)[C@@H](O)[C@H](C)O1 [Epirubicin] registered its Experiment's PV #2 at -0.017

The molecule identified as Cn1ncnc1[C@H]1c2n[nH]c(=O)c3cc(F)cc(c23)N[C@@H]1c1ccc(F)cc1 registered its Experiment's PV #2 at 0.057

The molecule identified as CC1(C)[C@@H](O[C@H]2O[C@H](C(=O)O)[C@@H](O)[C@H](O)[C@H]2O[C@@H]2O[C@H](C(=O)O)[C@@H](O)[C@H](O)[C@H]2O)CC[C@]2(C)[C@H]3C(=O)C=C4[C@@H]5C[C@@](C)(C(=O)O)CC[C@]5(C)CC[C@@]4(C)[C@]3(C)CC[C@@H]12 [Ammonium-glycyrrhizinate] registered its Experiment's PV #2 at -0.075

The molecule identified as COc1ccc(N(C)c2nc(C)nc3ccccc23)cc1 registered its Experiment's PV #2 at 0.029

The molecule identified as C/C(=C\c1csc(C)n1)[C@@H]1C[C@@H]2O[C@]2(C)CCC[C@H](C)[C@H](O)[C@@H](C)C(=O)C(C)(C)[C@@H](O)CC(=O)O1 [Patupilone, Patupilone (epothilone-b)] registered its Experiment's PV #2 at -0.067

The molecule identified as CCc1c2c(nc3ccc(O)cc13)-c1cc3c(c(=O)n1C2)COC(=O)[C@]3(O)CC [SN38, 7-ethyl-10-hydroxycamptothecin] registered its Experiment's PV #2 at 0.035

The molecule identified as CC[C@]1(O)C[C@@H]2CN(CCc3c([nH]c4ccccc34)[C@@](C(=O)OC)(c3cc4c(cc3OC)N(C)[C@H]3[C@@](O)(C(=O)OC)[C@H](OC(C)=O)[C@]5(CC)C=CCN6CC[C@]43[C@@H]65)C2)C1 registered its Experiment's PV #2 at -0.020

The molecule identified as CO[C@@]12[C@H](COC(N)=O)C3=C(C(=O)C(C)=C(N)C3=O)N1C[C@@H]1N[C@@H]12 registered its Experiment's PV #2 at -0.097

The molecule identified as CN(C)c1nc(N(C)C)nc(N(C)C)n1 registered its Experiment's PV #2 at 0.062

###

tested on: Multicellular spheroids with hASC and MDA-MB-231; assay: Permeability value (PV) in the 3D tumor model; settings: PV = EffA:M - 1/2(EffASC + EffMDA), Equation (4); #2
MEASURED_ATTRIBUTE: Experiment's PV #2
A bare number is all that is needed in reply.

The reported Experiment's PV #2 value, Multicellular spheroids with hASC and MDA-MB-231, for COc1cc([C@@H]2c3cc4c(cc3[C@@H](O[C@@H]3O[C@@H]5CO[C@@H](C)O[C@H]5[C@H](O)[C@H]3O)[C@H]3COC(=O)[C@H]23)OCO4)cc(OC)c1O [Etoposide] reads 0.043

The reported Experiment's PV #2 value, Multicellular spheroids with hASC and MDA-MB-231, for CCCCCOC(=O)Nc1nc(=O)n([C@@H]2O[C@H](C)[C@@H](O)[C@H]2O)cc1F [Capecitabine] reads 0.001

The reported Experiment's PV #2 value, Multicellular spheroids with hASC and MDA-MB-231, for CC(=O)O[C@H]1C(=O)[C@@]2(C)[C@H]([C@H](OC(=O)c3ccccc3)[C@]3(O)C[C@H](OC(=O)[C@H](O)[C@@H](NC(=O)c4ccccc4)c4ccccc4)C(C)=C1C3(C)C)[C@]1(OC(C)=O)CO[C@@H]1C[C@@H]2O [Paclitaxel] reads -0.071

###

Field: Experiment's PV #1. Provide a value for each of the compounds that follow.
test system: Multicellular spheroids with hASC and MDA-MB-231; test: Permeability value (PV) in the 3D tumor model; conditions: PV = EffA:M - 1/2(EffASC + EffMDA), Equation (4); #1
A bare number is all that is needed in reply.

The compound identified as C/C(=C\c1csc(C)n1)[C@@H]1C[C@@H]2O[C@]2(C)CCC[C@H](C)[C@H](O)[C@@H](C)C(=O)C(C)(C)[C@@H](O)CC(=O)O1 [Patupilone, Patupilone (epothilone-b)] registered its Experiment's PV #1 at -0.039

The compound identified as CN(C)c1nc(N(C)C)nc(N(C)C)n1 registered its Experiment's PV #1 at 0.025

The compound identified as COc1ccc(N(C)c2nc(C)nc3ccccc23)cc1 registered its Experiment's PV #1 at 0.039

The compound identified as CO[C@@]12[C@H](COC(N)=O)C3=C(C(=O)C(C)=C(N)C3=O)N1C[C@@H]1N[C@@H]12 registered its Experiment's PV #1 at -0.071

###

Field: Experiment's PV #3. Provide a value for each of the compounds that follow.
system: Multicellular spheroids with hASC and MDA-MB-231; experiment: Permeability value (PV) in the 3D tumor model; settings: PV = EffA:M - 1/2(EffASC + EffMDA), Equation (4); #3
A bare number is all that is needed in reply.

The compound identified as CO[C@@]12[C@H](COC(N)=O)C3=C(C(=O)C(C)=C(N)C3=O)N1C[C@@H]1N[C@@H]12 registered its Experiment's PV #3 at -0.045

The compound identified as CC1(C)[C@@H](O[C@H]2O[C@H](C(=O)O)[C@@H](O)[C@H](O)[C@H]2O[C@@H]2O[C@H](C(=O)O)[C@@H](O)[C@H](O)[C@H]2O)CC[C@]2(C)[C@H]3C(=O)C=C4[C@@H]5C[C@@](C)(C(=O)O)CC[C@]5(C)CC[C@@]4(C)[C@]3(C)CC[C@@H]12 [Ammonium-glycyrrhizinate] registered its Experiment's PV #3 at -0.095

The compound identified as COc1ccc(N(C)c2nc(C)nc3ccccc23)cc1 registered its Experiment's PV #3 at 0.085

The compound identified as C/C(=C\c1csc(C)n1)[C@@H]1C[C@@H]2O[C@]2(C)CCC[C@H](C)[C@H](O)[C@@H](C)C(=O)C(C)(C)[C@@H](O)CC(=O)O1 [Patupilone, Patupilone (epothilone-b)] registered its Experiment's PV #3 at -0.010

Data origin, for the record: paper PMC9115709
